Hey, just so you know, these numbers are from paper PMC7475179.

system: CrOMT1; experiment: MTase-Glo methyltransferase assay (SAH luminescence), Michaelis-Menten fit; format: biochemical, Citrus reticulata; conditions: 2 mM SAM, 50 mM Tris-HCl pH 8.0, 37 °C, 30 min
# log10 of Km annotations
Plainly stated, the numbers are log10 of Km given in µM.

Worked cases, answers included:
C[C@@H]1O[C@@H](O[C@H]2[C@H](Oc3cc(O)c4c(c3)O[C@H](c3ccc(O)c(O)c3)CC4=O)O[C@H](CO)[C@@H](O)[C@@H]2O)[C@H](O)[C@H](O)[C@H]1O [neoeriocitrin, eriodictyol-7-O-neohesperidoside] ... 0.94
O=c1c(O)c(-c2ccc(O)cc2)oc2cc(O)cc(O)c12 [kaempferol] ... 2.39
O=c1c(O)c(-c2ccc(O)c(O)c2)oc2cc(O)cc(O)c12 [quercetin] ... 0.65
O=c1cc(-c2cc(O)c(O)c(O)c2)oc2cc(O)cc(O)c12 [tricetin] ... -0.22
O=c1c(O)c(-c2cc(O)c(O)c(O)c2)oc2cc(O)cc(O)c12 [myricetin] ... 1.38
COc1c(-c2ccc(O)c(O)c2)oc2cc(O)cc(O)c2c1=O [quercetin 3-methyl ether] ... 0.59

Request the reported log10 of Km associated with C[C@@H]1O[C@@H](OC[C@H]2O[C@@H](Oc3cc(O)c4c(c3)O[C@H](c3ccc(O)c(O)c3)CC4=O)[C@H](O)[C@@H](O)[C@@H]2O)[C@H](O)[C@H](O)[C@H]1O [eriocitrin, eriodictyol-7-O-rutinoside]
0.90

Same question for O=C1C[C@@H](c2ccc(O)c(O)c2)Oc2cc(O)cc(O)c21 [eriodictyol] please.
1.79
